- Assay Info: folding stability dG unfold (combined trypsin and chymotrypsin); higher = more stable
Recorded folding stability dG unfold for the following sequences
Your answer should be a plain number; it is taken to be in kcal/mol.

Some solved cases for reference:
SAGGPRVFRLTYLDPETGEPRELRFSLPVPPAPDFISVYVNVPPELARRIAELLRELYPDKPVLVHRSAGGS [r8_437_TrMRF]; 2.68
SAGGSAMIEIEIVKPNASPEEAEKLEKEVREKLLEEGVPEEVVKEVNIKVIVKPVKKDKNNNPILESAGGSA [r15_684_JUSTAS]; 0.811
SAGGSAGGSAPVFTSPEEAEKYAREKLLREKPESHPDLVVNVNVTVTTEPDGTITIEIDYKESAGGSAGGSA [r18_440_JUSTAS]; 1.29

Shift focus to the following entry.
Query: For SAGGSAEEEVVETEVVYDPETKELHVRTKVFKPKPEITIEVDMSLEEVKALLEELTGRKIDRVEIKSAGGSA [r15_101_TrROS_Hall] , write its folding stability dG unfold.
Response: 1.34

* * *

- Assay Info: folding stability dG unfold from chymotrypsin proteolysis; higher = more stable
Consider the following sequences and their measured folding stability dG unfold readings.

Completed entries (count: 5):
SAGGSAGGSAMLENARPFPIDLPTKYRLRIVLPDGRVLELEYDPKSGVPRLRVVPVEEALKRSAGGSAGGSA [r18_247_TrMRF]; 1.59 kcal/mol
SAGGSAGGSSVIEVTFSDGSKALFFPGSQKVVVYNPSTKKKIVIPPGVSPETALKAIAEGKPISAGGSAGGS [r12_832_TrMRF]; 0.185 kcal/mol
SAGGSAGGSAGGPIKIKHNDGVEITIPADNVRSVDTNPGPGYIKITFPGNGQEFQIPIDSAGGSAGGSAGGS [r10_200_TrROS]; 0.00978 kcal/mol
SAGGKNVKKYVPIEIEIEAPSPEVAEATAEEIEKIIREKFPGAKVEVEMEPLPDGGYKLKVKVYVPVGSAGG [r13_17_TrMRF]; 3.47 kcal/mol
SAGGSAGGSAGGEPDPKFHVEYDEEEGRYKVKIYNPNNNKKEEIEVPVPPGQPKEEAIKSAGGSAGGSAGGS [r10_676_TrROS]; 0.0247 kcal/mol

Query sequence follows.
Query: Kindly indicate its recorded folding stability dG unfold. Item: SAGGSAGGMKATFHPGPGRFPLGDKEYEVDLIYVTVTLPNGVPRVFVLTPDEVEELLPDLELEGSAGGSAGG [r6_561_TrMRF]
Response: 1.04 kcal/mol

* * *

- Assay Info: folding stability dG unfold from chymotrypsin proteolysis; higher = more stable
Classification field: Met = folding stability dG unfold at or over 2 kcal/mol; Not met = folding stability dG unfold under 2 kcal/mol.

Record excerpt, results attached:
SAGGSAGGSAGKKVLVLSEDEIAELLGLSKEEIENMSEEEKEKLALELAKKLGIDEVIITSAGGSAGGSAGG [r11_80_TrROS_Hall]; Met
SKEEEEEIEIEIVVPNLTEEEIKELAKELLEKKGYEVEEIEITEEELEELKNKKPGDEVVIKIKIKVKKKSA [r9_1163_TrROS_Hall]; Met
SAGARIVPIKINLKWNPDNGQLEVPIEMYVNNHPVEMEARFDPEDPGKIEFEITYPGNGQEIRASIPLPSAG [r14_178_TrROS]; Not met
SAMERVEIVVKVKVRPDMSLEELKERVERELRRLLEERGIELPEGAKITVEIVEETEDYVVVKVTIELPSAG [r14_735_TrROS_Hall]; Met
SAGGSAGGSAGGGMRLVEVPPGDPAAVEARLAELGPDARLLEVRRLPEEGRWVVLVSEESAGGSAGGSAGGS [r10_23_JUSTAS]; Not met

Query: Does the sequence SAGGSAGGSAGYVVIPLDIDAEPGATVEITLPNGEKIEAIVEDHPDGLRSVRVGDGVILVPGSAGGSAGGSA [r18_372_TrMRF] have recorded folding stability dG unfold that is 2 kcal/mol or more?
Response: Not met

Query: Hello, I need to know if SAGGMSPELKKNKNVEKVIYNKKTGKVFVYNKKTKKLYIFTKNGKKIEIKMSKDEVEKLLKKGFKPISAGGS [r16_745_TrROS_Hall] has measured folding stability dG unfold not below 2 kcal/mol. Thanks!
Response: Met

Query: State whether the measured folding stability dG unfold reaches 2 kcal/mol, counting equality as reaching it, for SAGGSMTIKINGAEITDIEVRDDGTIRIKVRVTNENGEEVEVTLEIRIEPAPPVEVVHPDDPEALESAGGSA [r2_368_TrROS_Hall]
Response: Met
